Biological target: IGF-1R Ba/F3 (Homo sapiens, UniProt P08069)
Construct: fused on or other part: TEL- (or BCR-) IGF-1R in Ba/F3: the kinase part holds the site
Sequence (P08069 999-1274 limits assumed): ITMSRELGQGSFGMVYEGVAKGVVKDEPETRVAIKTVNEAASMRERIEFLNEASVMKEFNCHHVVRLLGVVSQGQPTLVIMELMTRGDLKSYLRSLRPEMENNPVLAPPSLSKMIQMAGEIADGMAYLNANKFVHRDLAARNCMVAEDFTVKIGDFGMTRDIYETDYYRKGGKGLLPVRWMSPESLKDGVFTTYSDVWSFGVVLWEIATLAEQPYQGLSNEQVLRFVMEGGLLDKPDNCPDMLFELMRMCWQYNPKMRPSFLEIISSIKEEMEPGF
Test: Ba/F3 Cell Viability Inhibition Assay (IGF-1R Ba/F3)
Assay type: cell-based, murine
Details: Tel-TK transformed Ba/F3 cells, 48 hours, Britelite luminescence
pIC50: −log10 of the molar value.
Classification field: enter yes (1) for pIC50 values not below 7, no (0) for values below it.

# molecule, class
records = [
    ("Cc1cc(Nc2nc(Nc3cc(C)c([C@@H]4COC(=O)N4)cc3C)ncc2Cl)n[nH]1 [Compound 231]", "yes (1)"),
]

Query :: Determine whether this molecule has pIC50 no lower than 7: Cc1cc(Nc2nc(Nc3cc(C)c(C4CCN(CC5(C#N)CC5)CC4)cc3C)ncc2Cl)n[nH]1 [Compound 198]
Result :: yes (1)

Query :: Threshold query (pIC50 >= 7) on Cc1cc(Nc2nc(Nc3cc(C4CCN(CCC(F)(F)F)CC4)c(F)cc3C)ncc2Cl)n[nH]1 [Compound 28]
Result :: no (0)

Query :: Entry Cc1cc(Nc2nc(Nc3cc(C)c(C4CCN(CCS(C)(=O)=O)CC4)cc3F)ncc2Cl)n[nH]1 [Compound 55] : is its pIC50 no less than 7?
Result :: yes (1)
